Biological target: recombinant human LTA4 hydrolase (Homo sapiens)
Construct: made in house; host or cells: Spodoptera frugiperda Sf-9 cells, baculovirus (AcNPV) expression vector
Sequence (P09960 1-611): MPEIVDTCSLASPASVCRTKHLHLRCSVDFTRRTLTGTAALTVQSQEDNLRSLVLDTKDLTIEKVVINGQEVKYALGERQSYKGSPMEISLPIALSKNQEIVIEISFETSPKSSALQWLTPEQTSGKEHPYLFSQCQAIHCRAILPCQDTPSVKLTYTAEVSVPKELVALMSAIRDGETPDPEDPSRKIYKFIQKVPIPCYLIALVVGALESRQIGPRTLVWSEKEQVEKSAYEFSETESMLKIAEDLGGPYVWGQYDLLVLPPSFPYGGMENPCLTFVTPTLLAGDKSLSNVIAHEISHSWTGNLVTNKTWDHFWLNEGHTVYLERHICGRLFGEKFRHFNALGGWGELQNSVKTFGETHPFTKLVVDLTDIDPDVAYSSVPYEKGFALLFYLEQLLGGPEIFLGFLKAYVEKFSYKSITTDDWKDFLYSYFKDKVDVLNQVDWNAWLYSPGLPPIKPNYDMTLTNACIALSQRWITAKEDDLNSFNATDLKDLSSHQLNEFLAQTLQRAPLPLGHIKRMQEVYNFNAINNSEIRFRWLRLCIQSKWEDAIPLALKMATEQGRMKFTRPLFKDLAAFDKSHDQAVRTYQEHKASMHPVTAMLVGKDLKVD
Test: Recombinant Human LTA4 Hydrolase Assay for LTA4 Hydrolase Inhibitor Activity (LTB4 by enzyme-linked immunoassay)
Assay type: biochemical
Classes based on inhibition at 100 µM: low = under 20%, moderate = from 20% up to 40%, high = 40% and over

Would you please look over these solved cases?
* c1ccc(Cc2ccc3c(c2)CC(Cn2nc4ccncc4n2)O3)cc1 (stereo not shown) [Example 361A] | moderate
* c1ccc(Cc2ccc3c(c2)CC(Cn2nnc4cccnc42)O3)cc1 (stereo not shown) [Example 360A] | moderate
* NC(=O)C1CCN(CCCOc2ccc(Cc3ccccc3)cc2)CC1 | low
* CCOC(=O)C1CCN(CCOc2ccc(Cc3ccc(F)cc3)cc2)CC1 | high
* CCOC(=O)C1CCN(CCOc2ccc(Cc3cccnc3)cc2)CC1 | high

Exam item: assign C#CC(CC(=O)OCC)NCCOc1ccc(Cc2ccccc2)cc1 (stereo not shown) to the correct category.
high

Could you place `O=C(CNCCOc1ccc(Cc2ccccc2)cc1)OCc1ccccc1` in its proper category? Many thanks.
high

Quick check: band for NC(=O)C1CCCN(CCCOc2ccc(Cc3ccccc3)cc2)C1 (stereo not shown)
low

Exercise: read the entry c1ccc(Cc2ccc3c(c2)CC(Cn2nc4cccnc4n2)O3)cc1 (stereo not shown) [Example 360B] and state which class it falls under.
low
